Assignment: determine reported residual activity for the given compounds.
# Measured On: MAP3K7 TAB1 (human) (UniProt O43318+Q15750)
# Sequence (O43318 whole entry, looked up): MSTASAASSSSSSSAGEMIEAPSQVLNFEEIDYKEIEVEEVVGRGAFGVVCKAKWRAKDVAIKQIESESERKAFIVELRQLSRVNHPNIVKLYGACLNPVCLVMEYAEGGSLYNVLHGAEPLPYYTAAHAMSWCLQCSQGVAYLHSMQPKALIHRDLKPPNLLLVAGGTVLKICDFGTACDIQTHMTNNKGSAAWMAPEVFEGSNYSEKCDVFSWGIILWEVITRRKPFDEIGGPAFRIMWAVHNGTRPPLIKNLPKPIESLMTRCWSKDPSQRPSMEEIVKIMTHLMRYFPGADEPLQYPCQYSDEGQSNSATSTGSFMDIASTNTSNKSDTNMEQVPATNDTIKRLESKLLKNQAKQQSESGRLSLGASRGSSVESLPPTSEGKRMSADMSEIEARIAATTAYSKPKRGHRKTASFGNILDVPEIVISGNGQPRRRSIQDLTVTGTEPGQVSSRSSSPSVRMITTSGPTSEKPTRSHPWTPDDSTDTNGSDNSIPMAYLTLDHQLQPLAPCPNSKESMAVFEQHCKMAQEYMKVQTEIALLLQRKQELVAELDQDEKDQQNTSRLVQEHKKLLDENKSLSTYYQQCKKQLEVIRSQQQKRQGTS
# Sequence (Q15750 whole entry, looked up): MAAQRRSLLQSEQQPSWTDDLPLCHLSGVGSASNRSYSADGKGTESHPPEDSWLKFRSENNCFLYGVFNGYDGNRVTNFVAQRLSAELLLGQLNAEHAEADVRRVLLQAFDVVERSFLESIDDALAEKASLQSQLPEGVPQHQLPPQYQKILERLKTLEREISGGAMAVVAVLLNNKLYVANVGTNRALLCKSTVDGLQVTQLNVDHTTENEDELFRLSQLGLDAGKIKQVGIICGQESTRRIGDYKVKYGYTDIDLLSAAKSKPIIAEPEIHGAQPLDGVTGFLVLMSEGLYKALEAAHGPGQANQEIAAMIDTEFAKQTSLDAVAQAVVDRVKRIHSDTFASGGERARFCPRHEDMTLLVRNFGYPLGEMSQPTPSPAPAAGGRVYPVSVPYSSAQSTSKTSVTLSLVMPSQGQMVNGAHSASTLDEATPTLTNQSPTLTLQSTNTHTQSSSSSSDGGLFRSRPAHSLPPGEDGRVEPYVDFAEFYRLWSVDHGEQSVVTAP
# Procedure Details: radiometric filter-binding kinase assay, Kinase HotSpot
# Condition Details: compound 0.5 µM; ATP 10 µM
Numbers only, in %.

1. O=C1NC(=O)C(c2cn(CCCn3ccnc3)c3ccccc23)=C1Nc1ccccc1 = 93.8
2. CC(=O)c1ccc(N2CCOCC2)cc1O = 98.6
3. CCC(=O)Nc1ccc2ncnc(Nc3cccc(Br)c3)c2c1 = 94
4. O=S(=O)(c1cccc2cnccc12)N1CCCNCC1 = 106
5. CNC(=O)c1cc(Oc2ccc(NC(=O)Nc3ccc(Cl)c(C(F)(F)F)c3)cc2)ccn1 = 101

[ask] Bench note: what residual activity did O=C1NC(=O)c2c1c1c3ccccc3n3c1c1c2c2ccccc2n1C1CCC3O1 show?
[reply] 6.06
